- experimentDescription: Mouse oral PK at 10 mg/kg
- Type: in vivo, Male BALB/c mice
- conditionNotes: male, BALB/c, plasma, Mean ± SD

# compound, AUC(0-t)
records = [
    ("C[C@@H]1CN(c2ccc3c(c2)CN(C2CCC(=O)NC2=O)C3=O)C(=O)N1c1ccccc1 (some centres unmarked) [Compound 107]", "5590 ng·h/mL"),
    ("C[C@@H]1CN(c2ccc3c(c2)CN(C2CCC(=O)NC2=O)C3=O)C(=O)N1c1ccc(C2CC2)cc1 (some centres unmarked) [Compound 125]", "1790 ng·h/mL"),
]

###

Here the recorded DC50 is given for each entry.
- targetOfAssay: CK1α (Homo sapiens, UniProt P48729+Q96SW2)
- Construct: HEK293 clonal lines with CRISPR KI HiBiT tag on CSNK1A1; host or cells: HEK293 clonal line, CRISPR knock-in HiBiT at the CSNK1A1 locus, stably expressing LgBiT
- Sequence (P48729 whole entry): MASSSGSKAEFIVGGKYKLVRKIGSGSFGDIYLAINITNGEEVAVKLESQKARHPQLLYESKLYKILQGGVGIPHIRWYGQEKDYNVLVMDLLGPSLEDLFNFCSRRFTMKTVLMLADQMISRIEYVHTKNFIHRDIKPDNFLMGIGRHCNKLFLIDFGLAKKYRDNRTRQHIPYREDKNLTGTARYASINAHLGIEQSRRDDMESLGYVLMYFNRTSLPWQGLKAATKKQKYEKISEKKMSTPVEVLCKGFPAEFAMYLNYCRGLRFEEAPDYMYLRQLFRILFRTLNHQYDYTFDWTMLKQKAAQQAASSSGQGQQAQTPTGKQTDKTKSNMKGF
- Sequence (Q96SW2 whole entry): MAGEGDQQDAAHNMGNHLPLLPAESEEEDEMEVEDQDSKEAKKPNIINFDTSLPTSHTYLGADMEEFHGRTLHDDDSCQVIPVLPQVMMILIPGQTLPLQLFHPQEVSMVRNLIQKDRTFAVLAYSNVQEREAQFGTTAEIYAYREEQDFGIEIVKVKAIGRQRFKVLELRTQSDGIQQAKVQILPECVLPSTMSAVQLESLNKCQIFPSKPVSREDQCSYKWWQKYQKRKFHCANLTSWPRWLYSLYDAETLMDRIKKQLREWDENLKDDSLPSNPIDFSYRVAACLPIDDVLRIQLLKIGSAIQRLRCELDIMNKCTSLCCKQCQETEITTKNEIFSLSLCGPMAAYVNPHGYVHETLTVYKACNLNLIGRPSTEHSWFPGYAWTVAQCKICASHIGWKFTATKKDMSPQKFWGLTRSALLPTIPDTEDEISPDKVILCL
- Sequence (Q16531 whole entry partner): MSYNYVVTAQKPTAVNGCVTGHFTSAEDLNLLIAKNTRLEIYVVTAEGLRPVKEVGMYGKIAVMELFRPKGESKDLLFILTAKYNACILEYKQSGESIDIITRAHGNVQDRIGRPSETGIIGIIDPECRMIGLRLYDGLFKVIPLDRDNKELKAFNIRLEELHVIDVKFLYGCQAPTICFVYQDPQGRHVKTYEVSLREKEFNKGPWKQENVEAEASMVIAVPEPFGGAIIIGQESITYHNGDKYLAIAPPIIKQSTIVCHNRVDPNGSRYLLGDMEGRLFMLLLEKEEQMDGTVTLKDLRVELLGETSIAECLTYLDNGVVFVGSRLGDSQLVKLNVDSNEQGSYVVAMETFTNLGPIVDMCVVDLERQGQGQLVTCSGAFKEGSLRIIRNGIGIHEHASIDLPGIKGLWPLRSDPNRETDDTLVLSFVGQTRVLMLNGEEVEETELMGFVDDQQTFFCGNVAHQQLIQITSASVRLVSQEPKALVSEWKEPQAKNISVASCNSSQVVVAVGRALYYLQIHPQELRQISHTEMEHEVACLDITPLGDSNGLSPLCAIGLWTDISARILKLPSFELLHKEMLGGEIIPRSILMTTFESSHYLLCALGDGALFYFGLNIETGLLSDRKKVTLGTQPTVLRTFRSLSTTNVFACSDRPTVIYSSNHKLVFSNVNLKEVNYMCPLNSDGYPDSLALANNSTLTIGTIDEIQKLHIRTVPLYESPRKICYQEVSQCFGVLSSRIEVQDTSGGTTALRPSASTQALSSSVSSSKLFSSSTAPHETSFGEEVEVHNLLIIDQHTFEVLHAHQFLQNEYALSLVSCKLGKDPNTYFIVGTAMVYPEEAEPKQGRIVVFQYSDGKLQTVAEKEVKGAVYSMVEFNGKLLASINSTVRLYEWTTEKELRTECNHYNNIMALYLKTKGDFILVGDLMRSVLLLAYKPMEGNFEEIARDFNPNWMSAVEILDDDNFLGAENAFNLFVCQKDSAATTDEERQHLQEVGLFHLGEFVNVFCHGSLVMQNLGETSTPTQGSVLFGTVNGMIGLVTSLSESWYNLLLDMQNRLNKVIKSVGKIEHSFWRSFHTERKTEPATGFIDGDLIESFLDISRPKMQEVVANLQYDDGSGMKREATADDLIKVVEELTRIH
- experimentDescription: CK1α NanoBit Assay (HiBiT-tagged CSNK1A1 in HEK293 cells, luminescence)
- Type: cell-based
- conditionNotes: 24 h
measuredParameter: DC50

# compound, testValue
records = [
    ("Cc1ccc(N2CCN(c3ccc4c(c3)CN(C3CCC(=O)NC3=O)C4=O)C2=O)cc1 (centres unmarked) [Compound 111]", "≤ 0.1 µM"),
    ("C[C@@H]1CN(c2ccc3c(c2)CN(C2CCC(=O)NC2=O)C3=O)C(=O)N1C1CCOC1 (some centres unmarked) [Compound 161]", "0.1 to 1 µM"),
    ("CC(C)c1cccc(N2CCN(c3ccc4c(c3)CN(C3CCC(=O)NC3=O)C4=O)C2=O)c1 (centres unmarked) [Compound 119]", "≤ 0.1 µM"),
    ("C[C@@H]1CN(c2ccc3c(c2)CN(C2CCC(=O)NC2=O)C3=O)C(=O)N1c1ccc(C2CC2)nc1 (some centres unmarked) [Compound 137]", "≤ 0.1 µM"),
    ("COC[C@@H]1CN(c2ccc3c(c2)CN(C2CCC(=O)NC2=O)C3=O)C(=O)N1c1ccc(C)cc1 (some centres unmarked) [Compound 143]", "≤ 0.1 µM"),
    ("CC(C)c1ccc(N2CCN(c3ccc4c(c3)CN(C3CCC(=O)NC3=O)C4=O)C2=O)cc1 (centres unmarked) [Compound 120]", "≤ 0.1 µM"),
    ("CN1CCCC1c1ccc(N2CCN(c3ccc4c(c3)CN(C3CCC(=O)NC3=O)C4=O)C2=O)cc1 (centres unmarked) [Compound 177]", "> 1 µM"),
    ("CN1CC(c2ccc(N3CCN(c4ccc5c(c4)CN(C4CCC(=O)NC4=O)C5=O)C3=O)cc2)C1 (centres unmarked) [Compound 176]", "> 1 µM"),
]

###

- targetOfAssay: CK1α (Homo sapiens, UniProt P48729+Q96SW2)
- Construct: HEK293 clonal lines with CRISPR KI HiBiT tag on CSNK1A1; host or cells: HEK293 clonal line, CRISPR knock-in HiBiT at the CSNK1A1 locus, stably expressing LgBiT
- experimentDescription: CK1α NanoBit Assay (HiBiT-tagged CSNK1A1 in HEK293 cells, luminescence)
- Assay type: cell-based
- conditionNotes: 24 h
- Procedure: HEK293 clonal lines with CRISPR KI HiBiT tag on CSNK1A1 and stably expressing LgBiT protein were obtained from Promega (Madison, WI). […] Cells were incubated at 37° C., 5% CO2 for 24 hours and then signal was read on a Pherastar FSX using “LUM plus” optic module. Data analysis was performed in Scinamic (Scinamic, Cambridge, MA). […] The luminescence response was then fitted in Scinamic using a 3-parameter agonist logistic fit (hillslope=1, EC50>0, top/bottom unconstrained). […]
Here the recorded DC50 is given for each entry.

# compound, DC50
records = [
    ("O=C1CCC(N2Cc3cc(N4CCN(c5ccc(C6CCC6)cc5)C4=O)ccc3C2=O)C(=O)N1 (stereo not drawn)", "≤ 0.1 µM"),
    ("COCc1ccccc1N1CCN(c2ccc3c(c2)CN(C2CCC(=O)NC2=O)C3=O)C1=O (stereo not drawn)", "0.1 to 1 µM"),
    ("O=C1CCC(N2Cc3cc(N4CCN(C5CCC5)C4=O)ccc3C2=O)C(=O)N1 (stereo not drawn)", "0.1 to 1 µM"),
    ("COc1ccc(-n2ccn(-c3ccc4c(c3)CN(C3CCC(=O)NC3=O)C4=O)c2=O)cc1 (stereo not drawn)", "> 1 µM"),
    ("O=C1CCC(N2Cc3cc(N4CCN(c5ccccc5)C4=O)ccc3C2=O)C(=O)N1 (stereo not drawn)", "≤ 0.1 µM"),
    ("COCc1ccc(N2CCN(c3ccc4c(c3)CN(C3CCC(=O)NC3=O)C4=O)C2=O)cc1 (stereo not drawn)", "≤ 0.1 µM"),
]
